Tested On: T1, PUF4 RNA-binding domain (Saccharomyces cerevisiae, UniProt P25339 537-888)
T1 sequence: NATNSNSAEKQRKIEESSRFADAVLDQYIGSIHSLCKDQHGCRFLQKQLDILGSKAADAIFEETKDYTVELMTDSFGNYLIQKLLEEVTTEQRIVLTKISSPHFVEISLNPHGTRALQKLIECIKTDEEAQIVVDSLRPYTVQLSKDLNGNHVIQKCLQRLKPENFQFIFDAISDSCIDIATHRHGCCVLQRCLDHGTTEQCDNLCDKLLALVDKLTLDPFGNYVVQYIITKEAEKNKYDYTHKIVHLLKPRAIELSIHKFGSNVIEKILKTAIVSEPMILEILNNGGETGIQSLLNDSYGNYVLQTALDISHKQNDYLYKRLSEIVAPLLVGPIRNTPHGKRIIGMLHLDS
Protocol Summary: Mg; RNA-MaP; 20 mM Na-HEPES pH 7.4, 30 mM KOAc, 0.75 mM MgCl2, 0.1% Tween-20, 5% glycerol, 0.1 mg/mL BSA, 2 mM DTT; 25 C; 0.0125-409.6 nM protein
Test Conditions: tags: N-His6-TEV cleaved; C-SNAP kept, Cy3B-labelled; label: tethered on chip by stalled RNA polymerase
pKd: −log10 of the molar value.
Decide using pKd: a value greater than or equal to 7 is criterion met, a smaller one is criterion not met.

{"Binder": "UCUCUUUGUAAGCCCUCUCUU (ssRNA) [Ic_S1_P4E.1_K4.1_C4.1_H4.1_A4.1_[T5A]_[A6G]_[T7C]_F4.1_[T8C]_[A9C]_T4.1]", "Class Name": "criterion not met"}
{"Binder": "UCUCUUUGUACCCCCUCUCUU (ssRNA) [Ic_S1_P4E.1_K4.1_C4.1_H4.1_A4.1_[T5C]_[A6C]_[T7C]_F4.1_[T8C]_[A9C]_T4.1]", "Class Name": "criterion not met"}
{"Binder": "UCUCUUUGUAUUAUUUUAUCUCUU (ssRNA) [Ie_S1_P5E.1_K5.1_C5.1_H5.1_A5.1_[+7TT]_F5.1_T5.1]", "Class Name": "criterion met"}
{"Binder": "Id_ii_S4_P5E.3_K5.2_C5.2_[C-2T]_[T-1G]_H5.2_A5.1_F5.1_T5.2_[T11A]_[A12C] (ssRNA) RNA: UUUGACAACUGAUCGUUCUUUCUUGUAUAUUAUUAACUUCUUUCUCGAUCAGUUGUCUUU", "Class Name": "criterion met"}
{"Binder": "UCUCUUUUUCCUGUAUAUUAUCUCUU (ssRNA) [Ie_S1_P4E.1_K4.1_C4.1_H4.1_[+1TTCCT]_A4.1_F4.1_T4.1]", "Class Name": "criterion met"}
{"Binder": "Id_ii_S4_P4E.4_K4.3_C4.2_[T-1C]_H4.3_A4.1_F4.1_T4.2_[G10C]_[T11C] (ssRNA) RNA: UUUGACAACUGAUCGUUCUUUCUCCACACUAUUACCUUCUUUCUCGAUCAGUUGUCUUU", "Class Name": "criterion not met"}
{"Binder": "UCUCUUUGUAUUGUUCUCUCUU (ssRNA) [Ib_S1_P5E.1_K5.1_C5.1_H5.1_A5.1_[A7G]_F5.1_[A10C]_T5.1]", "Class Name": "criterion met"}
